For each entry below, report its inhibition at 0.125 ppm value.
- Test system: Pyrenophora teres
- EXPERIMENT: Fungicidal action against Pyrenophora teres (net blotch), microtiter growth inhibition
- Type: cell-based
- REPORTED CONDITIONS: Pyrenophora teres, compound alone, 0.1250 ppm; read-out: % activity
Number in %, nothing else.

I would be grateful if you could share the reported inhibition at 0.125 ppm for CC(Cc1ccc(C(C)(C)C)cc1)CN1CCCCC1 (stereo not shown) .
0

Now consider `Cc1cc(C2CC2)nc(Nc2ccccc2)n1` .
50

Then this compound: Fc1ccc([C@]2(Cn3cncn3)O[C@H]2c2ccccc2Cl)cc1 (racemic)
20

Try this compound too: CC1COC(Cn2cncn2)(c2ccc(Oc3ccc(Cl)cc3)cc2Cl)O1 (stereo not shown)
50
